Source of measurements: patent US20220175942A1

Measured Kd of individual entries
- test target: CCL16_HUMAN
- test summary: BLI
Please reply with the bare figure in nM and do not write the unit itself.

Worked cases, Kd given:
binder	measured parameter	number
P985_AMBPA (other) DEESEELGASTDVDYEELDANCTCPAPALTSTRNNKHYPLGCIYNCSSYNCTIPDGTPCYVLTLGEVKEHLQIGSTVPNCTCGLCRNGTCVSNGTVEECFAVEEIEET	Kd	44.8
P1243_AMBAM (other) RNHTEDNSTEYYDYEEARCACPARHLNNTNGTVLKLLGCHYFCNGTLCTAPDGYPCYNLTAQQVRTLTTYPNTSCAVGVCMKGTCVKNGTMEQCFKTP	Kd	0.926
P672_RHIPU (other) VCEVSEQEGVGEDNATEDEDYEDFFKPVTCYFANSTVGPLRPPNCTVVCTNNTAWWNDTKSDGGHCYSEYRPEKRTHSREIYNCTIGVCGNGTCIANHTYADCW	Kd	3.29
P546_AMBCA (other) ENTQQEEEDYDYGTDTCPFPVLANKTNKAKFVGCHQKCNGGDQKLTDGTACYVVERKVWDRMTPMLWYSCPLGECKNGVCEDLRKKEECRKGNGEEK	Kd	6.67
P991_AMBCA (other) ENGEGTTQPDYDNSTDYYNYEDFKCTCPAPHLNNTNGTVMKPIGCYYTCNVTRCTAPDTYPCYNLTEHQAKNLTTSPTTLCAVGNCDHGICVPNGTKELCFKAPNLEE	Kd	1.28
P974_AMBCA (other) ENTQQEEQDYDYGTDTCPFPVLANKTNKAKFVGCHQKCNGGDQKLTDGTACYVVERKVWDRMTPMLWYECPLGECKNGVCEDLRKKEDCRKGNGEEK	Kd	11

Field: next binder
stdin: Fill in: Kd of P467_RHIPU (other) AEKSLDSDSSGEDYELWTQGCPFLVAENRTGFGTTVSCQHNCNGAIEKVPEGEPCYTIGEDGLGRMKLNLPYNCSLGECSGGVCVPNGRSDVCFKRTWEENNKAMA is ___
stdout: 14.1
